Recorded melting point for the following compounds

Below, each entry is followed by its recorded melting point result.
1. CC(=NNc1ccc(C2=NNC(=O)CC2C)cc1)c1cc(O)cc(O)c1 (centres unmarked) [Example 13]: 162 to 166 °C
2. Cc1cc(=O)[nH]nc1-c1ccc(NN=Cc2ccc(O)cc2O)cc1 [Example 21]: 303 to 310 °C
3. CC(=NNc1ccc(C2=NNC(=O)CC2C)cc1)c1ccc(O)cc1O (centres unmarked) [Example 33]: 259 to 261 °C
4. CCC(=NNc1ccc(-c2ccc(=O)n(C)n2)cc1)c1ccc(O)cc1O [Example 27]: 225 to 233 °C
5. CC1CC(=O)NN=C1c1ccc(NN=Cc2cc(O)ccc2O)cc1 (centres unmarked) [Example 8]: 317 to 320 °C

Reported melting point, compound CC1CC(=O)NN=C1c1ccc(NN=Cc2ccc(S(C)(=O)=O)cc2)cc1 (centres unmarked) [Example 19] : ____
130 to 137 °C

Please report the recorded melting point for COc1c(O)ccc(C=NNc2ccc(-c3n[nH]c(=O)cc3C)cc2)c1[N+](=O)[O-] [Example 22] .
264 to 268 °C

Looking for the measured melting point of COc1c(O)ccc(C=NNc2ccc(C3=NNC(=O)CC3C)cc2)c1[N+](=O)[O-] (centres unmarked) [Example 6] , can you help?
235 to 239 °C

Requested field: melting point. Item: O=c1[nH]nc(-c2ccc(NN=C(c3ccc(O)cc3O)c3ccc(O)cc3O)cc2)c2ccccc12 [Example 17]
140 to 146 °C

What does the record list as melting point for CC1CC(=O)NN=C1c1ccc(NN=Cc2c([N+](=O)[O-])cccc2[N+](=O)[O-])cc1 (centres unmarked) ?
216 to 218 °C

Look up melting point for this compound: O=c1[nH]nc(-c2ccc(NN=Cc3ccc(O)cc3O)cc2)c2ccccc12 [Example 18]
278 to 283 °C
